Field: Kd. Provide a value for each of the binders that follow.
Target: T1, Bcl-w, Q92843
T1 chain: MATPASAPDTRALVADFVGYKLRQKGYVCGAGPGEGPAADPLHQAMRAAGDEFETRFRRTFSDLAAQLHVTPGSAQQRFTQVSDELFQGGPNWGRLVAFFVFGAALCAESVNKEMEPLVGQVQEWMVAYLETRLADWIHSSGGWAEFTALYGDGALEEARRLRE
Assay: fluorescence polarisation, direct titration of receptor into 10 nM labelled peptide

GET /values?readout=Kd&item= KSRLVQQSKALKELADELQERCQRPA [TRIM58]
361 nM

// next record LRGSGAWGLLLRRVGDDVLVHLLARC [TERT]
992 nM

What do you have for ISSYMVLAPVFGYLGDRYNRKYLMCG [SPNS1] ?
871 nM

Note, next up: FSKREKLVEILRNIGDERTMVFVETK [DDX4]
> 4350 nM

Next up: VDSIRPKCQELRHLCDQFSAEIARRR [MCF2L]
7 nM

Item: KIETTPESRYLAQIGDSVSLTCSTTG [VCAM1]
> 4350 nM

Another binder: TDENKKVGLALKDLAKQYSDRLECCE [NUB1]
> 4000 nM
